- Study system: porcine pancreatic α-amylase (Sus scrofa, UniProt P00690)
- Sequence (P00690 16-511): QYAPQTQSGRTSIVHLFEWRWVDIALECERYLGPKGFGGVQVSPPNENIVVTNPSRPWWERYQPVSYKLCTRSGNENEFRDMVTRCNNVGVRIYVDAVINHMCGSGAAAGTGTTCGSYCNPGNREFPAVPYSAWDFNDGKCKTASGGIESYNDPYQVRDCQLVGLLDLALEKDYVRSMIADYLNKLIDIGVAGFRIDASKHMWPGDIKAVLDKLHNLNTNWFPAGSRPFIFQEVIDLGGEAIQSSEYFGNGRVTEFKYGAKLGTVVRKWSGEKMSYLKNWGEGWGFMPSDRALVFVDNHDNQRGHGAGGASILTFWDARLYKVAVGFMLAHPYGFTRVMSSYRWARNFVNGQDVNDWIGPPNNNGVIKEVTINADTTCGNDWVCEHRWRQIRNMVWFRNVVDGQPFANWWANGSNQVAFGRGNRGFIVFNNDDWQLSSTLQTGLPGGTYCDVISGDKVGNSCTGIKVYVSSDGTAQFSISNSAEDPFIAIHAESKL
- Procedure text: Continuous α-amylase activity assay (starch hydrolysis) by ITC
- Type: biochemical
- Assay setup: competitive inhibition constant; 100 μM flavan-3-ol, 310 K, initial injection (inj. 1); read-out: Kic
pKi: −log10 of the molar value.
Measurement kind: pKi

P. Oc1cc(O)c2c(c1)O[C@H](c1ccc(O)c(O)c1)[C@@H](O)C2 [CAT, (+)-Catechin]
Q. Oc1cc(O)c2c(c1)O[C@H](c1ccc(O)c(O)c1)[C@H](O)[C@H]2c1c(O)cc(O)c2c1O[C@H](c1ccc(O)c(O)c1)[C@@H](O)C2 [PC B1, procyanidin B1]
## Task Min pKi? P | Q // output: label of the selected item
## Result P
(P: 3.45, Q: 3.81)

----------
- Study system: porcine pancreatic α-amylase (Sus scrofa)
- Procedure text: Saturation transfer difference (STD)-NMR interaction study
- Type: binding
- Assay setup: 10 μM α-amylase, 1 mM ligand, 298 K; head prints 'blank', values are protein–ligand not corrected by a blank
- From the text: STD-NMR parameters were optimized based on the Bruker standard pulse sequence stddiffgp19.3 using a protein and ligand blank sample. The irradiation frequency (FQ2), saturation time (D20), saturation pulse selectivity (SPW9), and power of the saturation pulse (P42) were varied to achieve maximum selective protein saturation (S2). The best saturation of the α-amylase, with 60%, was obtained with FQ2 = 0.5 ppm, D20 = 3 s, SPW9 = 35 dB, and P42 = 50 ms. […]
Measurement kind: saturation aliph. (%)

Sure, the documented saturation aliph. for Oc1cc(O)c2c(c1)O[C@H](c1ccc(O)c(O)c1)[C@H](O)[C@H]2c1c(O)cc(O)c2c1O[C@H](c1ccc(O)c(O)c1)[C@H](O)[C@H]2c1c(O)cc(O)c2c1O[C@H](c1ccc(O)c(O)c1)[C@H](O)C2 is 7

Sure, the documented saturation aliph. for Oc1cc(O)c2c(c1)O[C@H](c1ccc(O)c(O)c1)[C@H](O)[C@H]2c1c(O)cc(O)c2c1O[C@H](c1ccc(O)c(O)c1)[C@H](O)C2 is 6

Sure, the documented saturation aliph. for Oc1cc(O)c2c(c1)O[C@H](c1ccc(O)c(O)c1)[C@H](O)C2 [EC, (−)-Epicatechin] is 6

P. Oc1cc(O)c2c(c1)O[C@H](c1ccc(O)c(O)c1)[C@@H](O)C2 [CAT, (+)-Catechin]
Q. Oc1cc(O)c2c(c1)O[C@H](c1ccc(O)c(O)c1)[C@H](O)[C@H]2c1c(O)cc(O)c2c1O[C@H](c1ccc(O)c(O)c1)[C@@H](O)C2
## Task Min saturation aliph.? P | Q // output: label of the selected item
## Result P
(P: 5%, Q: 11%)
